target: UniProtKB P11413; experiment: Inhibition of recombinant full length human G6PD expressed in Escherichia coli HB351 using G6P as substrate in presence of NADP+ by spectrofluorimetric analysis
pKi: −log10 of the molar value.
The following compounds are shown together with reported pKi values.
measuredParameter: pKi

itemSmiles | testedSystem | readoutRelation | endpointValue
CO[C@H]1O[C@H](CSCCCN)[C@@H](O)[C@H](O)[C@H]1O | UniProtKB P11413 | = | 3.89
CO[C@H]1O[C@H](CNS(=O)(=O)CCNC(=N)N)[C@@H](O)[C@H](O)[C@H]1O | UniProtKB P11413 | = | 4.77
CO[C@H]1O[C@H](CS(=O)(=O)CCCN)[C@@H](O)[C@H](O)[C@H]1O | UniProtKB P11413 | = | 4.45
CO[C@H]1O[C@H](CSCCC#N)[C@@H](O)[C@H](O)[C@H]1O | UniProtKB P11413 | < | 3.70
CO[C@H]1O[C@H](CSCCN)[C@@H](O)[C@H](O)[C@H]1O | UniProtKB P11413 | < | 2.70
CO[C@H]1O[C@H](CS(=O)(=O)CCC#N)[C@@H](O)[C@H](O)[C@H]1O | UniProtKB P11413 | < | 3.70
CO[C@H]1O[C@H](CNS(=O)(=O)CCN)[C@@H](O)[C@H](O)[C@H]1O | UniProtKB P11413 | < | 3.40
CO[C@H]1O[C@H](CSCCNC(=N)N)[C@@H](O)[C@H](O)[C@H]1O | UniProtKB P11413 | < | 3.70
CO[C@H]1O[C@H](CS(=O)(=O)CCCNC(=N)N)[C@@H](O)[C@H](O)[C@H]1O | UniProtKB P11413 | = | 4.65

---

experiment: Selectivity index, ratio of Ki for recombinant full length human G6PD to Ki for Plasmodium falciparum G6PD-6PGL
measuredParameter: Ratio Ki

itemSmiles | readoutRelation | endpointValue
CO[C@H]1O[C@H](CS(=O)(=O)CCCNC(=N)N)[C@@H](O)[C@H](O)[C@H]1O | = | 0.5
CO[C@H]1O[C@H](CNS(=O)(=O)CCN)[C@@H](O)[C@H](O)[C@H]1O | > | 18
CO[C@H]1O[C@H](CSCCCN)[C@@H](O)[C@H](O)[C@H]1O | = | 0.4
CO[C@H]1O[C@H](CS(=O)(=O)CCC#N)[C@@H](O)[C@H](O)[C@H]1O | > | 2.9

---

target: Glucose-6-phosphate 1-dehydrogenase (Homo sapiens); experiment: Competitive inhibition of recombinant full length human G6PD expressed in Escherichia coli HB351 using G6P as substrate in presence of NADP+ by Lineweaver-Burk plot analysis
Sequence (P11413 whole entry): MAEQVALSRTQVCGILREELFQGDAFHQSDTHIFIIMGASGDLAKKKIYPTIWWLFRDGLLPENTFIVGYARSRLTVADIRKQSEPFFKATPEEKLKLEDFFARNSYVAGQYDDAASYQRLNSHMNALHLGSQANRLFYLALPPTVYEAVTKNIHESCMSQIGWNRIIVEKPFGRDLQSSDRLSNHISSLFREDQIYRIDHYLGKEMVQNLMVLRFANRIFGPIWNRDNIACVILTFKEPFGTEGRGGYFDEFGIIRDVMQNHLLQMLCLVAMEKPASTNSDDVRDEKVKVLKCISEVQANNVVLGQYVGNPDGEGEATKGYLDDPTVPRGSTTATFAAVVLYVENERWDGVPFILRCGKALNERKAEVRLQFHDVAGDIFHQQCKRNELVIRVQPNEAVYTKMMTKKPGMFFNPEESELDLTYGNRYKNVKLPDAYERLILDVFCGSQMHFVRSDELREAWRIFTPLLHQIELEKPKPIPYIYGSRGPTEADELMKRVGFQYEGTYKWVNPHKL
Property: IC50; scope: individual molecules
measuredParameter: IC50

itemSmiles | testedSystem | endpointValue
CCN1CCC[C@@H]1CNC(=O)c1ccc2c(c1)NC(=O)c1cccc(C)c1S2 | Glucose-6-phosphate 1-dehydrogenase (Homo sapiens) | > 80 µM
CCN1CCC[C@@H]1CNC(=O)c1ccc2c(c1)NC(=O)/C(=C/c1ccccc1F)S2 | Glucose-6-phosphate 1-dehydrogenase (Homo sapiens) | > 80 µM

---

target: Bifunctional glucose-6-phosphate 1-dehydrogenase/6-phosphogluconolactonase (Plasmodium falciparum (isolate 3D7)); assay: Inhibition of Plasmodium falciparum G6PD-6PGL using G6P as substrate in presence of NADP+ by spectrofluorimetric analysis
Sequence (Q8IKU0 whole entry): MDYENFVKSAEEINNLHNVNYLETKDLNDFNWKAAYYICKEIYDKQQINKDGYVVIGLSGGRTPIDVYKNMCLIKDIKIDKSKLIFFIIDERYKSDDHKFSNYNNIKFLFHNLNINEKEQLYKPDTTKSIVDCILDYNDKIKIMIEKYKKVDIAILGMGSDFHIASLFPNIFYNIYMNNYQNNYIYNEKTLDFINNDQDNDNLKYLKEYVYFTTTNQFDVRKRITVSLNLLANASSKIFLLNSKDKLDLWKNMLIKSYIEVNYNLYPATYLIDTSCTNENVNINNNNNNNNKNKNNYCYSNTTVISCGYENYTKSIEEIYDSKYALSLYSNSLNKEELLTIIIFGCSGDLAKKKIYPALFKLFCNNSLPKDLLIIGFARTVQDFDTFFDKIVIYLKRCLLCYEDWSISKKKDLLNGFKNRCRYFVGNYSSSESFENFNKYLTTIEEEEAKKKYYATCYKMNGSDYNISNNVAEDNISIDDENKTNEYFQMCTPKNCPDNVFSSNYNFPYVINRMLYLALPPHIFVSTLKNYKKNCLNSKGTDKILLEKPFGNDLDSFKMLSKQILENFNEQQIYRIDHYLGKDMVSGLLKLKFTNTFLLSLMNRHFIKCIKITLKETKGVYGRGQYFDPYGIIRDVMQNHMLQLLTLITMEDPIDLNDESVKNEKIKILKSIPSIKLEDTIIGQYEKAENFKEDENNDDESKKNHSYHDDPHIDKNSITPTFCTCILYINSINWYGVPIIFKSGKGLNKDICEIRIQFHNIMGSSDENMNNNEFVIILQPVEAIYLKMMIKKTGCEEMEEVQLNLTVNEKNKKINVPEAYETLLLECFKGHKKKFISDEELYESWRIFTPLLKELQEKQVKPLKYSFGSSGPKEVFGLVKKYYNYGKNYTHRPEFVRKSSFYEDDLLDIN
Response field label: string, one of YES (Ki strictly below 70 µM) or NO.

itemSmiles | class
CO[C@H]1O[C@H](CNS(=O)(=O)CCN)[C@@H](O)[C@H](O)[C@H]1O | YES
CO[C@H]1O[C@H](CSCCN)[C@@H](O)[C@H](O)[C@H]1O | NO
CO[C@H]1O[C@H](CSCCC#N)[C@@H](O)[C@H](O)[C@H]1O | NO
CO[C@H]1O[C@H](CS(=O)(=O)CCCNC(=N)N)[C@@H](O)[C@H](O)[C@H]1O | YES
CO[C@H]1O[C@H](CS(=O)(=O)CCCN)[C@@H](O)[C@H](O)[C@H]1O | YES
CO[C@H]1O[C@H](CNS(=O)(=O)CCNC(=N)N)[C@@H](O)[C@H](O)[C@H]1O | YES
CO[C@H]1O[C@H](CSCCCN)[C@@H](O)[C@H](O)[C@H]1O | NO
CO[C@H]1O[C@H](CSCCNC(=N)N)[C@@H](O)[C@H](O)[C@H]1O | YES
